Target: Syk(h) (Homo sapiens, UniProt P43405)
Construct: purchased Millipore
Assay: Kinase Profiling Assay
Type: biochemical
Conditions: peptide 100 μM
Experimental readout: % activity (%)
Answer with a number only, understood to be in %.

>>> assay_result("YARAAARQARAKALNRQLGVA (Mammal) [MMI-0200]")
36

Item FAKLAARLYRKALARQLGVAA [MMI-0300] with Syk(h) (Homo sapiens, UniProt P43405) - % activity? 24

// same read-out, input: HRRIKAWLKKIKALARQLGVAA (Mammal) [MMI-0500] 5

Now the sequence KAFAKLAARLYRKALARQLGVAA [MMI-0400] 9

----------
Measured % activity, listed per entry.
Molecular target: DAPK2(h) (Homo sapiens)
Sequence (Q9UIK4 whole entry): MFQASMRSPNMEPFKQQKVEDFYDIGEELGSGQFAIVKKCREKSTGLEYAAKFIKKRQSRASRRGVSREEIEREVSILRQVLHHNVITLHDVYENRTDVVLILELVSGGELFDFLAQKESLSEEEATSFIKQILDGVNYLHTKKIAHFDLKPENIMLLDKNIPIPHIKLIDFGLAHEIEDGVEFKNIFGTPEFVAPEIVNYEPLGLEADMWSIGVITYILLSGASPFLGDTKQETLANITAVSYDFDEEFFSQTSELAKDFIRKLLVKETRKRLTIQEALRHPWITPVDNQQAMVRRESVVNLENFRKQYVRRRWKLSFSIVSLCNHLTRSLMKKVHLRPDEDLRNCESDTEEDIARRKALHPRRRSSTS
Test: Kinase Profiling Assay
Format: biochemical
Settings: peptide 100 μM
Answer format: numeric, % implied, no suffix.

Some sequences with recorded % activity:
>>> assay_result("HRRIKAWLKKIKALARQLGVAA (Mammal) [MMI-0500]")
3
>>> assay_result("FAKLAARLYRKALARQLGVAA [MMI-0300]")
32
>>> assay_result("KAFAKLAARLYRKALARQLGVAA [MMI-0400]")
16

Would you mind telling me what % activity value was observed for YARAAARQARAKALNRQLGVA (Mammal) [MMI-0200] ? 92

----------
Target: Fer(h) (Homo sapiens, UniProt P16591)
Sequence (P16591 whole entry): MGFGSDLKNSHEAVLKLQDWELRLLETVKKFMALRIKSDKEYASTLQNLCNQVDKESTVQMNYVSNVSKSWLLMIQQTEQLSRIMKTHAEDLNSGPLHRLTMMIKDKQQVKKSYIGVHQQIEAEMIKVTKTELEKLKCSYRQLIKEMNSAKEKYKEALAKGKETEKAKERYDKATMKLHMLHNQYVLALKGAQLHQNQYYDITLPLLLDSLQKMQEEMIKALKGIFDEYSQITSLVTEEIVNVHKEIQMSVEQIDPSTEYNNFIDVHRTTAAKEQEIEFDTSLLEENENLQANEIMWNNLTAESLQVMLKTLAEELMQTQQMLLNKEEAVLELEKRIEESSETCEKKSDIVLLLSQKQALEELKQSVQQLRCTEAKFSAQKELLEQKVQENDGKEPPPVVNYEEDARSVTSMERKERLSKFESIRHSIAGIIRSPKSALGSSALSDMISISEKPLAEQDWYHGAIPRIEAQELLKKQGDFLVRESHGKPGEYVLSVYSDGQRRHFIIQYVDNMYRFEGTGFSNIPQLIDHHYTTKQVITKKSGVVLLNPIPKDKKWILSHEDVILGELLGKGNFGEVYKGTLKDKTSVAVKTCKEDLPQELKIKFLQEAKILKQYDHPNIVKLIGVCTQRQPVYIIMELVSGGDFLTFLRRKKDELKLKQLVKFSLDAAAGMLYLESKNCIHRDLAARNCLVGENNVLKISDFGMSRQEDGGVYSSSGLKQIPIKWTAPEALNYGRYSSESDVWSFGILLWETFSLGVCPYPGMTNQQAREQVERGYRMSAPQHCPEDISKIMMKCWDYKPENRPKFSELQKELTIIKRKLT
Experiment: Kinase Profiling Assay
Format: biochemical
Conditions: peptide 100 μM
Experimental readout: % activity (%)
Note: unit % is implicit; provide only the numeric part.

The cases that follow already have their % activity on record.
>>> assay_result("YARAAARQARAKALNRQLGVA (Mammal) [MMI-0200]")
101
>>> assay_result("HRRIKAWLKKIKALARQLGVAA (Mammal) [MMI-0500]")
196
>>> assay_result("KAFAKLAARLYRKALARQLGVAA [MMI-0400]")
108

Query sequence follows.
For the sequence shown here, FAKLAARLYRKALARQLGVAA [MMI-0300] , give the reported % activity. 130

----------
Target: Src(1-530)(h) (Homo sapiens, UniProt P12931)
Construct: Src(1-530)(h); purchased Millipore
Test: Kinase Profiling Assay
Format: biochemical
Details: peptide 100 μM
This section presents sequences with their documented % activity values.
Reply with just the number (in %).

>>> assay_result("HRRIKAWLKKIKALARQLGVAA (Mammal) [MMI-0500]")
21
>>> assay_result("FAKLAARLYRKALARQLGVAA [MMI-0300]")
23

Suppose we examine the sequence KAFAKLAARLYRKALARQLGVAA [MMI-0400] ; what % activity value has been reported? 19

Please do the same for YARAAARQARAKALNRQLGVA (Mammal) [MMI-0200] as well. 75

----------
Target: GRK6(h) (Homo sapiens)
Construct: purchased Millipore
Sequence (P43250 whole entry): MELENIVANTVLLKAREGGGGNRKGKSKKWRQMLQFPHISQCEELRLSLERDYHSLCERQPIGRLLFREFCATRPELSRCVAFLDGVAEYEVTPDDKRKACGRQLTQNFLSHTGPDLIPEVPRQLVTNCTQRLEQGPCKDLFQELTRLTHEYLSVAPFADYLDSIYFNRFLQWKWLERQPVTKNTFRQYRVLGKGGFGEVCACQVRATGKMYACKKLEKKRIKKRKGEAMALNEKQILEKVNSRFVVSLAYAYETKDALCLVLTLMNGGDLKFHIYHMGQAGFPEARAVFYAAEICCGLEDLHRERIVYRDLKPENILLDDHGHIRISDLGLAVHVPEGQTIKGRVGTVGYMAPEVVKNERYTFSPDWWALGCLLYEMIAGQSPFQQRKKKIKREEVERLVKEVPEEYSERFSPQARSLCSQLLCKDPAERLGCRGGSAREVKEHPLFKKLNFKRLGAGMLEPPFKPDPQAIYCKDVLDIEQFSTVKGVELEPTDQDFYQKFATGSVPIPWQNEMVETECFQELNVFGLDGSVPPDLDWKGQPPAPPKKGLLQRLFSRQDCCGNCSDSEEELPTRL
Assay: Kinase Profiling Assay
Assay type: biochemical
Conditions: peptide 100 μM
No end group written: not given here.
Experimental readout: % activity (%)
The figure you give is taken to be in %; do not add the unit.

Solved cases (2 shown):
>>> assay_result("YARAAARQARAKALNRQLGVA (Mammal) [MMI-0200]")
132
>>> assay_result("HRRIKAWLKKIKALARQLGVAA (Mammal) [MMI-0500]")
174

Name the reported % activity value associated with the sequence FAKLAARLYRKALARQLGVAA [MMI-0300] 147

YARAAARQARAKALARQLGVAA [MMI-0100] , same question. 131

Try this sequence too: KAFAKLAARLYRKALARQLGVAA [MMI-0400] 141
